system.name: T1, CD3 epsilon homodimer protein (UniProt P07766 23-126)
T1 construct: also called CD3 (CD3 epsilon)
assay.overview: SPR, antibody over immobilised CD3e homodimer;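 further: SPR at 25 °C with CD3 epsilon homodimer amine-coupled to a CM4 sensor chip and antibody flowed over as analyte in HBS-EP+ running buffer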
endpoint.name: KD ratio to GLS3000
Quick one: just the number, no unit, thanks!

[in] Give its KD ratio to GLS3000 value. Item: CE115HA000/GLS3000 L27bW (antibody, IgG1, name in Kabat numbering, V domains shown, one-arm IgG1) VH: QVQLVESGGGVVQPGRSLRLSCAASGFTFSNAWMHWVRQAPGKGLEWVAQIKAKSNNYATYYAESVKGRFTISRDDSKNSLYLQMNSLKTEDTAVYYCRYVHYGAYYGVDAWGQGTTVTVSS VL: DIVMTQSPLSLPVTPGEPASISCRSSQSWVHSNRNTYLHWYQQKPGQAPRLLIYKVSNRFSGVPDRFSGSGSGTDFTLKISRVEAEDVGVYYCGQGTQVPYTFGQGTKLEIK
[out] 23.6

[in] Give its KD ratio to GLS3000 value. Item: CE115HA000/GLS3000 G89D (antibody, IgG1, name in Kabat numbering, V domains shown, one-arm IgG1) VH: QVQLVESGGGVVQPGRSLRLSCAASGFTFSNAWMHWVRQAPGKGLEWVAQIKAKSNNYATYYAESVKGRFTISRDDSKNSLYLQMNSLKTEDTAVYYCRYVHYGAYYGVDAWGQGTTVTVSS VL: DIVMTQSPLSLPVTPGEPASISCRSSQSLVHSNRNTYLHWYQQKPGQAPRLLIYKVSNRFSGVPDRFSGSGSGTDFTLKISRVEAEDVGVYYCDQGTQVPYTFGQGTKLEIK
[out] 1.96

[in] Give its KD ratio to GLS3000 value. Item: CE115HA000/GLS3000 R29V (antibody, IgG1, name in Kabat numbering, V domains shown, one-arm IgG1) VH: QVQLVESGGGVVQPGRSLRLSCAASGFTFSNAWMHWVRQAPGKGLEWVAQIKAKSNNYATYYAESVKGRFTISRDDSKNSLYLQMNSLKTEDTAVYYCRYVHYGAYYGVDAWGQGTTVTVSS VL: DIVMTQSPLSLPVTPGEPASISCRSSQSLVHSNVNTYLHWYQQKPGQAPRLLIYKVSNRFSGVPDRFSGSGSGTDFTLKISRVEAEDVGVYYCGQGTQVPYTFGQGTKLEIK
[out] 2.25

Just for reference, patent US20210388087A1 is where these values come from.
